test system: IRAK3 (Homo sapiens)
Construct: IRAK Endogenous HTRF Degradation Assay; endogenous in cells
procedure summary: IRAK3 biochemical binding assay (LanthaScreen Eu Kinase Binding, TR-FRET)
Please provide measured IC50 for the entries that follow.
Answers are plain numbers, in nM.

In the examples that follow, each entry is paired with its recorded IC50.
O=C1CCC(c2ccc(N3CCN(CC[C@H]4CC[C@H](n5cc(Nc6ncc(-c7cnn8c7CCCC8)n7ccnc67)cn5)CC4)CC3)cc2)C(=O)N1 (stereo partly drawn) [Compound 118] ... 0.1
Cc1cccc(-c2cnc(Nc3cnn(C4CCN(CC(=O)N5CCN(c6ccc7c(c6)C(=O)N(C6CCC(=O)NC6=O)C7=O)CC5)CC4)c3)c3nccn23)c1 (stereo not drawn) [Compound 1] ... 5

Asked: For the compound O=C1CCC(c2ccc(N3CCN(CCN4CCC(n5cc(Nc6ncc(-c7ccc8c(c7)CC8)n7ccnc67)cn5)CC4)CC3)cc2)C(=O)N1 (stereo not drawn) [Compound 85] , what IC50 is on record?
Given back: 25

###

test system: IRAK3 (Homo sapiens)
Construct: IRAK Endogenous HTRF Degradation Assay; endogenous in cells
procedure summary: IRAK3 biochemical binding assay (LanthaScreen Eu Kinase Binding, TR-FRET)
readout kind: IC50
Hi, when you answer, please include the unit after the number. Thanks!

Cc1cc(-c2cnc(Nc3cnn([C@H]4CCN(CCN5CCN(c6ccc(C7CCC(=O)NC7=O)cc6)CC5)[C@@H](C)C4)c3)c3nccn23)c(F)cc1F (stereo partly drawn) ... 1.1 nM

Could you tell me IC50 for each of these compounds? They are listed below.
1. O=C1CCC(c2ccc(N3CCN(CC[C@H]4CC[C@H](n5cc(Nc6ncc(-c7cn[nH]c7)n7ccnc67)cn5)CC4)CC3)cc2)C(=O)N1 (stereo partly drawn)
2. Cc1cc(-c2cnc(Nc3cnn([C@H]4CC[C@H](CCN5CC6(C5)CN(c5ccc(C7CCC(=O)NC7=O)cc5)C6)CC4)c3)c3nccn23)c(F)cc1F (stereo partly drawn)
3. Cc1cc(-c2cnc(Nc3cnn([C@H]4CC[C@@H](CCN5CCN(c6ccc(C7CCC(=O)NC7=O)cc6)CC5)CC4)c3)c3nccn23)c(F)cc1F (stereo partly drawn)
4. CN1CCOc2cc(F)c(-c3cnc(Nc4cnn(C5CCN(CCN6CCN(c7ccc(C8CCC(=O)NC8=O)cc7)CC6)CC5)c4)c4nccn34)cc21 (stereo not drawn)

Given back:
1: 1.5 nM; 2: 0.3 nM; 3: 4.3 nM; 4: 0.08 nM

Asked: For the compound Cc1cc(-c2ccc(Nc3cnn([C@H]4CC[C@H](CCN5CCN(c6ccc(C7CCC(=O)NC7=O)cc6)CC5)CC4)c3)c3nccn23)c(F)cc1F (stereo partly drawn) , what IC50 is on record?
Given back: 2.6 nM

###

test system: IRAK3 (Homo sapiens, UniProt Q9Y616)
Construct: IRAK Endogenous HTRF Degradation Assay; endogenous in cells
Sequence (Q9Y616 1-596): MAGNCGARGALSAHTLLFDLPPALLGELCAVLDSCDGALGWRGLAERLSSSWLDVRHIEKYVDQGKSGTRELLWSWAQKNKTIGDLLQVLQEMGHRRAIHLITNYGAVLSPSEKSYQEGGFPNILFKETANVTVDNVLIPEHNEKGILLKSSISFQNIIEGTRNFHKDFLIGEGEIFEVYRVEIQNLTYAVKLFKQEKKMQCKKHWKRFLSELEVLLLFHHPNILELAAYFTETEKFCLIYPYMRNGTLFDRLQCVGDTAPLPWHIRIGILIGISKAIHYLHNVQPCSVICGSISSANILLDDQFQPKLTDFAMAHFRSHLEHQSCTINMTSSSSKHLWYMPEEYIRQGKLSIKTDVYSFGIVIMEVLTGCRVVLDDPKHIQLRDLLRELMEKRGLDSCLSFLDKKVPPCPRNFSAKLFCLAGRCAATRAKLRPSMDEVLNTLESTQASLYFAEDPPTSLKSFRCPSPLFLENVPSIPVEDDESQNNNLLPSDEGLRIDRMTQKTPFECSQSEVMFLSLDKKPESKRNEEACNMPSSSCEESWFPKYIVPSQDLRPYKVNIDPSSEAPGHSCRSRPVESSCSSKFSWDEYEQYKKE
procedure summary: IRAK3 biochemical binding assay (LanthaScreen Eu Kinase Binding, TR-FRET)
readout kind: pIC50
Give bare numbers, as −log10 of the molar value.

In the examples that follow, each entry is paired with its recorded pIC50.
Cc1cc(-c2cnc(Nc3cnn(C4CCN(CC(=O)N5CCN(c6ccc(C7CCC(=O)NC7=O)cc6)CC5)CC4)c3)c3nccn23)c(F)cc1F (stereo not drawn) ... 8.89
Cc1cc(-c2cnc(Nc3cnn(C4CCN(CCN5CCN(c6cccc(C7CCC(=O)NC7=O)c6)CC5)CC4)c3)c3nccn23)c(F)cc1F (stereo not drawn) ... 8.21

Moving on to another compound below.
Asked: What is its pIC50 for IRAK3 (Homo sapiens, UniProt Q9Y616)? Entry: Cc1cc(-c2cnc(Nc3cnn(C4CCN(CC(=O)N5CCN(c6ccc7c(c6)CN(C6CCC(=O)NC6=O)C7=O)CC5)CC4)c3)c3nccn23)c(F)cc1F (stereo not drawn)
Given back: 9.29
